# Tested on: PAF receptor (specific receptor binding site on rabbit platelet plasma membranes) (Oryctolagus cuniculus)
# Construct: 100 μg of the platelet plasma membrane suspension; from tissue; host or cells: rabbit platelet plasma membranes
# Sequence (G1TEI7 1-342): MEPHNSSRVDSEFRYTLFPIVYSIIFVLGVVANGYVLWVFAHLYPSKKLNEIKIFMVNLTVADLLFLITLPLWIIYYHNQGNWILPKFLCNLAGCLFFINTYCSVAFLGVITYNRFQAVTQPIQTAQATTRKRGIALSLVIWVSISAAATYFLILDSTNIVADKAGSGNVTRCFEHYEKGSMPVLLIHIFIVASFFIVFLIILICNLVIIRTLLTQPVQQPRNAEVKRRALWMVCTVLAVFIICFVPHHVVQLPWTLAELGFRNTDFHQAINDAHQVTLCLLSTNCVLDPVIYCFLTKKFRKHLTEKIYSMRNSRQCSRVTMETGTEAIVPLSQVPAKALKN
# Protocol notes: inhibition of 3H-PAF binding to rabbit platelet plasma membrane
# Test settings: Table (A), 3H-PAF, pH 7.5, 0° C.
Measured attribute: IC50 (nM)
Express it in nM; write the number only.

Query COc1cc([C@@H]2CC[C@@H](c3cc(OC)c(OC)c(OC)c3)C2OCCN(C)C)cc(OC)c1OC (relative stereo) yields IC50 of 100

Input COc1cc([C@@H]2CC[C@@H](c3cc(OC)c(OC)c(OC)c3)C2OCC2CC2)cc(OC)c1OC (relative stereo) . Output IC50: 19

Lab book: IC50 of CCCOC1[C@H](c2cc(OC)c(OC)c(OC)c2)CC[C@H]1c1cc(OC)c(OC)c(OC)c1 (relative stereo) noted as 30

Entry COc1cc([C@@H]2CC[C@@H](c3cc(OC)c(OC)c(OC)c3)C2OCc2ccccc2)cc(OC)c1OC (relative stereo) ; IC50 = 48

Briefly, IC50 measured for CCOC(=O)COC1[C@H](c2cc(OC)c(OC)c(OC)c2)CC[C@H]1c1cc(OC)c(OC)c(OC)c1 (relative stereo) : 3.6

COc1cc([C@@H]2CC[C@@H](c3cc(OC)c(OC)c(OC)c3)C2OC)cc(OC)c1OC (relative stereo) yielded IC50 of 8.3

Measured IC50 of COc1cc([C@@H]2CC[C@@H](c3cc(OC)c(OC)c(OC)c3)C2OC(C)=O)cc(OC)c1OC (relative stereo) : 100

Value of IC50 reported for the compound CON=C1[C@@H](c2cc(OC)c(OC)c(OC)c2)CC[C@@H]1c1cc(OC)c(OC)c(OC)c1 (relative stereo) is 5

According to the records, this compound C=CCOC1[C@H](c2cc(OC)c(OC)c(OC)c2)CC[C@H]1c1cc(OC)c(OC)c(OC)c1 (relative stereo) displays IC50 of 4.8

The reported value for C#CCOC1[C@H](c2cc(OC)c(OC)c(OC)c2)CC[C@H]1c1cc(OC)c(OC)c(OC)c1 (relative stereo) in terms of IC50 is 1

Entry CCOC1[C@H](c2cc(OC)c(OC)c(OC)c2)CC[C@H]1c1cc(OC)c(OC)c(OC)c1 (relative stereo) ; IC50 = 30

According to the records, this compound COc1cc([C@H]2CC[C@H](c3cc(OC)c(OC)c(OC)c3)C2=NO)cc(OC)c1OC (relative stereo) displays IC50 of 5.8

Looking up COc1cc([C@@H]2CC[C@@H](c3cc(OC)c(OC)c(OC)c3)C2)cc(OC)c1OC (relative stereo) , I see its IC50 listed as 20

The recorded IC50 for COCCOC1[C@H](c2cc(OC)c(OC)c(OC)c2)CC[C@H]1c1cc(OC)c(OC)c(OC)c1 (relative stereo) is 100
